- experiment: physchem
- testContext: buffer, pH 9
Bridges are numbered along the chain shown (N, C = ends). Where no end group is shown, it is not given here.
parameter: remaining at 72 h (%)
Dear colleague, please return just the value in %, with no unit written.

Exercise: Value lookup for remaining at 72 h; key = GSQYCVPVDQPCSLNTQPCCDDATCTQERNENGHTVYYCRA (disulfide 5-20, 12-25, 19-39) [GS-ω/κ-hexatoxin-Hv1h]
Solution: 82

====

- experiment: physchem
- testContext: buffer, pH 9
Bridges are numbered along the chain shown (N, C = ends). Where no end group is shown, it is not given here.
parameter: remaining at 120 h (%)
Dear colleague, please return just the value in %, with no unit written.

Exercise: Value lookup for remaining at 120 h; key = GSQYCVPVDQPCSLNTQPCCDDATCTQERNENGHTVYYCRA (disulfide 5-20, 12-25, 19-39) [GS-ω/κ-hexatoxin-Hv1h]
Solution: 83

====

- experiment: physchem
- testContext: buffer, pH 9
Bridges are numbered along the chain shown (N, C = ends). Where no end group is shown, it is not given here.
parameter: remaining at 168 h

Exercise: Value lookup for remaining at 168 h; key = GSQYCVPVDQPCSLNTQPCCDDATCTQERNENGHTVYYCRA (disulfide 5-20, 12-25, 19-39) [GS-ω/κ-hexatoxin-Hv1h]
Solution: 69%
